The origin of these recorded values is the supplement of paper PMC9112550.

// shrunken log2 fold change lookup, one value per entry
# Tested on: Escherichia coli TOP10
# assay-overview: shrunken log2 fold change of peptide-encoding DNA abundance (4.5 h post-induction vs induction); higher = less antimicrobial activity (less host growth inhibition)
# stated-conditions: time post-induction: 4.5 h; library: site-saturation at positions 5, 18, 19, 20
Output spec: single numeric token, no unit.

Solved entries (count: 2):
polymer-sequence	shrunken log2 fold change
RRIRQRPPRLPRPRPRPCSSPRP	-0.0115
RRIRMRPPRLPRPRPRPAGFPRP	0.733

Fill blank: measured shrunken log2 fold change of the sequence `RRIRERPPRLPRPRPRPHIMPRP` is ____. -0.652

Fill blank: measured shrunken log2 fold change of the sequence `RRIRTRPPRLPRPRPRPQPMPRP` is ____. 0.267

* * *

// shrunken log2 fold change lookup, one value per entry
# Test system: Escherichia coli TOP10
# assay-overview: shrunken log2 fold change of peptide-encoding DNA abundance (4.5 h post-induction vs induction); higher = less antimicrobial activity (less host growth inhibition)
# stated-conditions: time post-induction: 4.5 h; library: site-saturation at positions 5, 18, 19, 20
Output spec: single numeric token, no unit.

polymer-sequence	target-system	shrunken log2 fold change
RRIRHRPPRLPRPRPRPCTWPRP	Escherichia coli TOP10	-0.0924
RRIRDRPPRLPRPRPRPQVSPRP	Escherichia coli TOP10	0.0416
RRIRRRPPRLPRPRPRPEDRPRP	Escherichia coli TOP10	-0.154
RRIRRRPPRLPRPRPRPVQEPRP	Escherichia coli TOP10	-0.00475
RRIRHRPPRLPRPRPRPKTEPRP	Escherichia coli TOP10	-0.0292

Fill blank: measured shrunken log2 fold change of the sequence `RRIRERPPRLPRPRPRPPQSPRP` is ____. 0.0516

Fill blank: measured shrunken log2 fold change of the sequence `RRIRWRPPRLPRPRPRPRLCPRP` is ____. 0.512

* * *

# Test system: Escherichia coli TOP10
# assay-overview: shrunken log2 fold change of peptide-encoding DNA abundance (4.5 h post-induction vs induction); higher = less antimicrobial activity (less host growth inhibition)
# stated-conditions: time post-induction: 4.5 h; library: site-saturation at positions 5, 18, 19, 20
Hi, to clarify the labels: Met covers shrunken log2 fold change from 0.04 upward, Not met covers anything below 0.04.

polymer-sequence	assigned-category
RRIRMRPPRLPRPRPRPKGFPRP	Not met
RRIRNRPPRLPRPRPRPYKVPRP	Not met
RRIRTRPPRLPRPRPRPDHPPRP	Not met
RRIRRRPPRLPRPRPRPIMCPRP	Met
RRIRTRPPRLPRPRPRPACCPRP	Met
RRIRKRPPRLPRPRPRPWGLPRP	Not met
RRIRTRPPRLPRPRPRPLMGPRP	Met
RRIRLRPPRLPRPRPRPNILPRP	Not met

Form field: shrunken log2 fold change at least 0.04? Entry: `RRIRLRPPRLPRPRPRPPCRPRP` Met

Form field: shrunken log2 fold change at least 0.04? Entry: `RRIRKRPPRLPRPRPRPHYWPRP` Not met

Form field: shrunken log2 fold change at least 0.04? Entry: `RRIRPRPPRLPRPRPRPAPGPRP` Met

* * *

# Tested on: Escherichia coli TOP10;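 also: peptides expressed intracellularly from a pBAD plasmid library in pooled LB shake-flask culture, induced with 0.3% L-arabinose, DNA abundance read by NGS, three biological replicates, DESeq2 with apeglm shrinkage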
# assay-overview: shrunken log2 fold change of peptide-encoding DNA abundance (4.5 h post-induction vs induction); higher = less antimicrobial activity (less host growth inhibition)
# stated-conditions: time post-induction: 4.5 h; library: site-saturation at positions 5, 18, 19, 20
// shrunken log2 fold change lookup, one value per entry

Solved entries (count: 6):
polymer-sequence	shrunken log2 fold change
RRIRNRPPRLPRPRPRPTHNPRP	-0.114
RRIRWRPPRLPRPRPRPNAMPRP	0.123
RRIRHRPPRLPRPRPRPGWHPRP	0.208
RRIRHRPPRLPRPRPRPEVMPRP	-0.0878
RRIRCRPPRLPRPRPRPWHAPRP	-0.271
RRIRVRPPRLPRPRPRPTTEPRP	0.14

Fill blank: measured shrunken log2 fold change of the sequence `RRIRCRPPRLPRPRPRPNCHPRP` is ____. -0.314

Fill blank: measured shrunken log2 fold change of the sequence `RRIRIRPPRLPRPRPRPQGKPRP` is ____. -0.385

Fill blank: measured shrunken log2 fold change of the sequence `RRIRCRPPRLPRPRPRPSPLPRP` is ____. 0.21

Fill blank: measured shrunken log2 fold change of the sequence `RRIRFRPPRLPRPRPRPVILPRP` is ____. -1

Fill blank: measured shrunken log2 fold change of the sequence `RRIRKRPPRLPRPRPRPHIMPRP` is ____. -0.0414
